Listed next: entries and their corresponding inhibition at 1 µM.
- Tested on: porcine kidney-derived LLC-PK1 cells
- TEST SUMMARY: Protective effect against oxidized LDL-induced injury of porcine kidney-derived LLC-PK1 cells (1)
- Type: cell-based
- TEST SETTINGS: Sus scrofa, LLC-PK1, 6 h, 1 μM; compound added immediately before adding oxidized LDL; mean ± standard deviation; read-out: Cytoprotection rate (%)

COMPOUND	OUTPUT UNIT	inhibition at 1 µM
CC(C)(C)c1cc2sccc2c(C(C)(C)C)c1O	%	96.7
CC(C)(C)c1cc2c(c(C(C)(C)C)c1O)CCO2	%	99.7
Cc1c(C)c2c(c(C)c1O)CCC(C)(C(=O)O)O2 (centres unmarked) [Trolox, reference compound]	%	-7.1
CCCCCC1(CCCCC)Cc2c(cc(C(C)(C)C)c(O)c2C(C)(C)C)S1	%	15.3
CCCCCC1(CCCCC)Cc2c(cc(C(C)(C)C)c(O)c2C(C)(C)C)O1	%	0.6
